- MEASUREMENT TARGET: T1, human CD154, soluble antigen (human, UniProt P29965 116-261, limits assumed)
- T1 construct: KinExA uses 'soluble antigen'; also called CD40 ligand; CD40L
- T1 sequence (looked up): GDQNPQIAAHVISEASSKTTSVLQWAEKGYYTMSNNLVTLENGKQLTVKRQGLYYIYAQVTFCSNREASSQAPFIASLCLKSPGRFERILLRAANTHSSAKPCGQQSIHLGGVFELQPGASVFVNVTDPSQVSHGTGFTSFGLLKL
- ASSAY PROCEDURE: KinExA solution-phase equilibrium, Fab with soluble antigen
ASSAY READOUT: Kd (nM)

[[record]]
binder = "5c8 Fab Mutant #25 (heavy T30H/Y33W; light S26D/Q27E/T33W) (Fab, V domains shown) VH: QVQLVQSGAEVVKPGASVKLSCKASGYIFHSYWMYWVKQAPGQGLEWIGEINPSNGDTNFNEKFKSKATLTVDKSASTAYMELSSLRSEDTAVYYCTRSDGRNDMDSWGQGTLVTVSS VL: DIVLTQSPATLSVSPGERATISCRADERVSSSWYSYMHWYQQKPGQPPKLLIKYASNLESGVPARFSGSGSGTDFTLTISSVEPEDFATYYCQHSWEIPPTFGGGTKLEIK"
quantitative_result = 0.012

[[record]]
binder = "5c8 Fab Mutant #1 (heavy chain T30H) (Fab, V domains shown) VH: QVQLVQSGAEVVKPGASVKLSCKASGYIFHSYYMYWVKQAPGQGLEWIGEINPSNGDTNFNEKFKSKATLTVDKSASTAYMELSSLRSEDTAVYYCTRSDGRNDMDSWGQGTLVTVSS VL: DIVLTQSPATLSVSPGERATISCRASQRVSSSTYSYMHWYQQKPGQPPKLLIKYASNLESGVPARFSGSGSGTDFTLTISSVEPEDFATYYCQHSWEIPPTFGGGTKLEIK"
quantitative_result = 0.307

[[record]]
binder = "5c8 Fab Mutant #17 (heavy Y33W; light S26D/Q27E/T33W) (Fab, V domains shown) VH: QVQLVQSGAEVVKPGASVKLSCKASGYIFTSYWMYWVKQAPGQGLEWIGEINPSNGDTNFNEKFKSKATLTVDKSASTAYMELSSLRSEDTAVYYCTRSDGRNDMDSWGQGTLVTVSS VL: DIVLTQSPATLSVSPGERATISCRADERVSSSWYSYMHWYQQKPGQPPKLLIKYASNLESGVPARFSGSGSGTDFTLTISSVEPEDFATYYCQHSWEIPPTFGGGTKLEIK"
quantitative_result = 0.023

